Dear all, I have gathered published pIC50 values for UniProtKB P29597; the list follows.
pIC50: −log10 of the molar value.

Request - read-out pIC50 | tested on UniProtKB P29597 | compound O=C(O)Cn1cc(Nc2ncc3ccn(CC4CCCCC4(F)F)c3n2)cn1 (stereo not shown)
> 7.00

Can you handle Cc1cc(Nc2nc(N[C@@H]3C[C@@H]4CN(CCC#N)C[C@@H]4C3)nc3sccc23)n[nH]1 next?
7.64

Request: CCc1cc(O)c(F)cc1-c1cc2[nH]nc(C(=O)NC)c2c(N[C@H](C)c2ccccc2N(C)S(C)(=O)=O)n1
7.75

And CCC(Cn1ccc2cnc(Nc3cnn(CC(=O)OCC(C)C)c3)nc21)C(C)C (stereo not shown) ?
> 7.00
